- Test system: 10A cells
- protocol-details: MTT cell viability assay, 10A
- Type: cell-based
- setup-conditions: Homo sapiens, normal cell line, 72 h
- Experimental: Statins dissolved in DMSO and AA dissolved in ethanol. After 72 h treatment, the medium was added 0.5 mg/ml MTT reagent and incubated at 37°C for 4 h. Subsequently, the supernatant was aspirated, and cells were lysed in 150 µl DMSO, then shaken 10 min at 37°C. The optical density (OD) was measured at 570 and 630 nm using a plate reader.
assay-metric: pIC50
Give bare numbers, as −log10 of the molar value.

These solved cases illustrate the format of a correct answer.
>  <compound>
CCC(C)(C)C(=O)O[C@H]1C[C@@H](C)C=C2C=C[C@H](C)[C@H](CC[C@@H]3C[C@@H](O)CC(=O)O3)[C@H]21 [Simvastatin]

>  <pIC50>
4.57

$$$$
>  <compound>
CC(C)n1c(/C=C/C(O)CC(O)CC(=O)O)c(-c2ccc(F)cc2)c2ccccc21 (stereo not drawn) [Fluvastatin]

>  <pIC50>
4.88

$$$$

Could you now look at the following compound, please?
# input compound: CC(=O)O[C@H]1CC[C@@]2(C)C(=CC[C@@H]3[C@@H]2CC[C@]2(C)C(c4cccnc4)=CC[C@@H]32)C1 [Abiraterone acetate] ; wanted: its pIC50 5.28

Provenance of the data: paper PMC8141582
